test: protein stability index of a GFP-peptide fusion (GPS, HEK-293T) (PSI 1-6); higher = more stable; conditions: treatment: DMSO; c terminus: a fixed tail appended;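 also: 24-mer peptide tiles fused after GFP, lentivirally expressed, FACS-sorted into six equal bins by GFP/DsRed ratio, decoded by Illumina sequencing, PSI is the read-weighted mean bin number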
Decide using protein stability index: a value greater than or equal to 4 is Criterion met, a smaller one is Criterion not met.

Worked set:
{"Biopolymer sequence": "SHLLVVEPEKLYAMPDPAGPDGHL [ESRRA]", "Answer label": "Criterion not met"}
{"Biopolymer sequence": "MVRKIGCYAAMKKKIYAMGGGSYG [GAN]", "Answer label": "Criterion not met"}
{"Biopolymer sequence": "ADLLLLTDLKTLCCEFLEGCIAAE [GAN]", "Answer label": "Criterion not met"}
{"Biopolymer sequence": "TEQSSASRLMRRHKRRRRKQKVSR [DVL3]", "Answer label": "Criterion met"}
{"Biopolymer sequence": "DLAGLGSETPKSQVGTLLFRSRSR [CDC25B]", "Answer label": "Criterion not met"}
{"Biopolymer sequence": "QLYCEKVQGLMKEYLLSFPAGKTP [VPS39]", "Answer label": "Criterion not met"}

*Q* Does RCGYRLVRRQRSADEQLHCAGKAK [ESR2] have a reported protein stability index of at least 4?
*A* Criterion not met

*Q* Does QSSADGSQPPKKKPKTTNIELQGV [RBBP5] have a reported protein stability index of at least 4?
*A* Criterion met

*Q* Does SPSPPVEVKIEEPVSMEMDNHMSD [INTS3] have a reported protein stability index of at least 4?
*A* Criterion met

*Q* Does LHIPMYFFLAILSCSEICYTFIIV [OR10K2] have a reported protein stability index of at least 4?
*A* Criterion not met

*Q* Does EEVPEAYVDIHTGLSGSGVAFVCA [PYCR3] have a reported protein stability index of at least 4?
*A* Criterion not met

*Q* Does HPANRSCRETGSFLDLFRYRVLLG [SLC22A15] have a reported protein stability index of at least 4?
*A* Criterion not met

*Q* Does RTSCSSRPCVPPSCHGYTLPGACN [KRT33B] have a reported protein stability index of at least 4?
*A* Criterion not met

----------
assay: protein stability index of a GFP-peptide fusion (GPS, HEK-293T) (PSI 1-6); higher = more stable; conditions: treatment: DMSO; c terminus: a fixed tail appended
Outcome measure: protein stability index

Sample records with protein stability index:
{"Biopolymer sequence": "KYRNPSLKLMVNVCGHTLCESCVD [MNAT1]", "protein stability index": 2.53}
{"Biopolymer sequence": "MASGPGSQEREGLLIVKLEEDCAW [ZNF263]", "protein stability index": 2.44}
{"Biopolymer sequence": "SRNFGVRNQGNFSVVGTVLAATQA [ZC2HC1C]", "protein stability index": 2.96}
{"Biopolymer sequence": "PFSEFFKLRFNRKKKGMYRKAITE [PWWP2B]", "protein stability index": 2.35}
{"Biopolymer sequence": "HEMREQHDAQVRLYKEELEQTYHA [LMNB1]", "protein stability index": 4.08}

Could you tell me protein stability index for each of these sequences? They are listed below.
1. QLISRMEYVHSKNLIYRDVKPENF [CSNK1G3]
2. KKHEFLTSVLDALSTDMVHAASDP [SMOC2]
3. LRTYLARLPWAGQLTKELPLSPAF [PBXIP1]
4. REAKEGDCGDILRLIRELAEFEKL [SAT2]

*A*
1. 2.37
2. 3.33
3. 2.22
4. 2.95

Could you tell me protein stability index for each of these sequences? They are listed below.
1. VVLCEGVKWLSFHSGYDFGYLIKI [CNOT7]
2. DPTNWLRCYYYEDTISTIKSVAWE [NCF4]
3. PDGVCLSGGRGPQGDKAIREQGPR [PBXIP1]
4. ADACDIDEIEEVPTTSHRLSRHDK [NETO1]
5. SICMRMEILGCPLPDPNNYYHRRN [CPXM2]
6. DDGTYSQVQCHSYTGYCWCVTPNG [SMOC2]

*A*
[2.87, 2.12, 5.21, 5.59, 2.68, 2.48]

----------
So I've got a bunch of sequences here, and I need their protein stability index values.
assay: protein stability index of a GFP-peptide fusion (GPS, HEK-293T) (PSI 1-6); higher = more stable; conditions: treatment: DMSO; c terminus: a fixed tail appended

Sample records with protein stability index:
{"Biopolymer sequence": "KIIREIDFYREDEDEEEEEGGEGE [TRIM55]", "protein stability index": 5.18}
{"Biopolymer sequence": "LASLSFIDTVYSTAFAPKMIVDLL [OR4A15]", "protein stability index": 2.66}
{"Biopolymer sequence": "KTCNPPDAGPMVVHCSAGVGRTGC [PTPRD]", "protein stability index": 3.5}
{"Biopolymer sequence": "DPLANGCQGVSEAAHRLARRLYHL [PSD2]", "protein stability index": 3.24}
{"Biopolymer sequence": "SLSTSSSSSPPGTPSPADAKAPPT [CEBPB]", "protein stability index": 5.42}

Could you tell me protein stability index for each of these sequences? They are listed below.
1. SFHPLQYIGFYGKETTNTCILKCN [PDS5B]
2. MASLLEDLSHIEGLSQAPQPLADE [SERTAD1]

*A*
1.99
4.82

----------
experiment: protein stability index of a GFP-peptide fusion (GPS, HEK-293T) (PSI 1-6); higher = more stable; conditions: treatment: MLN4924 1 uM, 8 h; c terminus: a fixed tail appended
Decide using protein stability index: a value greater than or equal to 4 is Met, a smaller one is Not met.

Worked set:
{"Biopolymer sequence": "EFMKTLEKTGPQLTSRIKGDWIGL [DENND6A]", "Answer label": "Not met"}
{"Biopolymer sequence": "REAKEGDCGDILRLIRELAEFEKL [SAT2]", "Answer label": "Not met"}
{"Biopolymer sequence": "AAHLKLTSIEEGYERSFIHKIKHK [IQUB]", "Answer label": "Not met"}

*Q* Does VASGSTPAPALCCAPYDSRLLGSA [IRX6] have a reported protein stability index of at least 4?
*A* Not met

*Q* Does MASGPGSQEREGLLIVKLEEDCAW [ZNF263] have a reported protein stability index of at least 4?
*A* Not met

*Q* Does APKVNAVDTLNVKDIAPEKQLLNS [DLC1] have a reported protein stability index of at least 4?
*A* Met

*Q* Does NKALSIILHLICLLEKVPCTLEQD [FEM1C] have a reported protein stability index of at least 4?
*A* Not met

*Q* Does NQAGFTLHSAIYAARPDVKCVVHI [ADD1] have a reported protein stability index of at least 4?
*A* Not met

*Q* Does DLLRNTHFRGVSLNLTRKLAQQLC [DYRK1B] have a reported protein stability index of at least 4?
*A* Not met

*Q* Does MEEGERSPLLSQETAGQKPLSVHR [TSPAN10] have a reported protein stability index of at least 4?
*A* Met

----------
So I've got a bunch of sequences here, and I need their protein stability index values.
experiment: protein stability index of a GFP-peptide fusion (GPS, HEK-293T) (PSI 1-6); higher = more stable; conditions: treatment: DMSO; c terminus: a fixed tail appended
Numbers only.

Could you tell me protein stability index for each of these sequences? They are listed below.
1. AQPNTMLGRMFGSGREHNFTRPNE [BTBD10]
2. NIHMNFTHICRSHNSINQSLDESV [SLC2A12]
3. QYEKMAEKNRKDAEDWFFSKTEEL [KRT17]
4. FAQPMMRPPFGAAAVPGTQLSPSP [SNAP91]
5. VAEETPDGAPALCPSPEALSPEPP [PRKX]

*A*
1. 3.74
2. 2.56
3. 4.68
4. 3.43
5. 5.48

Could you tell me protein stability index for each of these sequences? They are listed below.
1. LSICFTCFKAAFLDFKDLLESEDW [TEX19]
2. KREMILKRKEEEALKDSLRPKLSE [VDR]
3. STPSDNIVRRFLNICENTEGAIAV [CDC14A]
4. VLGADGVCMTFMKQIAGGDVTAKN [INTS3]

*A*
2.62
4.82
3.66
3.51

Could you tell me protein stability index for each of these sequences? They are listed below.
1. LLIVKLEEDCAWSQELPPPDPGPS [ZNF263]
2. GVNYPKPMVNHAEASRLNIERMKQ [CRY1]
3. MALLRKINQVLLFLLIVTLCVILY [GLT8D2]
4. ICQGIRGLWGTTLTENTAENRELY [PKD2L1]

*A*
1: 2.33; 2: 4.2; 3: 2.12; 4: 3.03

----------
test: protein stability index of a GFP-peptide fusion (GPS, HEK-293T) (PSI 1-6); higher = more stable; settings: treatment: MLN4924 1 uM, 8 h; c terminus: a fixed tail appended
Outcome measure: protein stability index
Give bare numbers.

Sample records with protein stability index:
{"Biopolymer sequence": "LNFCGPNVINHFYCDLPQLFQLSC [OR3A1]", "Outcome measure": "protein stability index", "Result number": 2.6}
{"Biopolymer sequence": "KVKVPQKTAGKENHFDMHRVGKWH [ZNF75A]", "Outcome measure": "protein stability index", "Result number": 3.43}
{"Biopolymer sequence": "SSRVPVGGGPEATLSISDVRTLSE [ZBTB22]", "Outcome measure": "protein stability index", "Result number": 4.57}
{"Biopolymer sequence": "SGSGNRLDGKKKGVEPSPSPIKPG [UFD1]", "Outcome measure": "protein stability index", "Result number": 4.72}
{"Biopolymer sequence": "DRGIKGDITPLMAAANGGHVKIVK [ANKRD17]", "Outcome measure": "protein stability index", "Result number": 4.38}

Could you tell me protein stability index for each of these sequences? They are listed below.
1. VTTYLHKDYNNLWIIKKHNTNSDP [POMT2]
2. LWEKLAKQGELPREVRRAQARLLN [NOP53]

*A*
2.5
2.82

Reference source for all entries: the supplement of paper PMC10567573
